System Name: Butyrylcholinesterase (Equus caballus)
Sequence (Q9N1N9 whole entry): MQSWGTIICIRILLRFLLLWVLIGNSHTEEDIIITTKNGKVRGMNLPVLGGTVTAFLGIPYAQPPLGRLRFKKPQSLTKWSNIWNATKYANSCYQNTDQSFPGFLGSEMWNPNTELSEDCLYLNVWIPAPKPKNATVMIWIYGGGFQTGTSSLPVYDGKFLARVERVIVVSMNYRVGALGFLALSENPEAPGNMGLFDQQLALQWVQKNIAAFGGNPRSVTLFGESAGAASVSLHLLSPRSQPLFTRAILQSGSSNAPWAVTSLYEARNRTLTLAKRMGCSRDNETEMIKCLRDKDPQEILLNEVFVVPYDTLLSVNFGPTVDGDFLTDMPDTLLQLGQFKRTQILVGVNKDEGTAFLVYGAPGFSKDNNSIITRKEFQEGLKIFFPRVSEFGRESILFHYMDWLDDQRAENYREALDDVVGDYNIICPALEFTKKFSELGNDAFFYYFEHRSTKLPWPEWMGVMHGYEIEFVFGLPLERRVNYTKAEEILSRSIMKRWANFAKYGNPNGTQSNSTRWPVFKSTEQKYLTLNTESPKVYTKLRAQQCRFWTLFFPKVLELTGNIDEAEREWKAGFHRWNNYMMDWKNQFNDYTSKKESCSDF
pKi: −log10 of the molar value.
Please note: Fulfilled applies when pKi is 8 or greater, and Not fulfilled applies otherwise.

A selection of reference data follows.
- Molecule: "CCN(CC)C(C)CN1c2ccccc2Sc2ccccc21 (stereo not given)"
  Assigned Category: "Not fulfilled"
- Molecule: "CN(CCCNc1c2c(nc3ccccc13)CCCC2)CCCSc1c2c(nc3ccccc13)CCCC2"
  Assigned Category: "Fulfilled"
- Molecule: "CC(=O)N(CCCNc1c2c(nc3ccccc13)CCCC2)CCCSc1c2c(nc3ccccc13)CCCC2"
  Assigned Category: "Fulfilled"
- Molecule: "c1ccc2c(NCCCCCNc3c4c(nc5ccccc35)CCCC4)c3c(nc2c1)CCCC3"
  Assigned Category: "Not fulfilled"

Query molecule follows.
Does pKi meet or surpass 8 for CC(=O)N(CCCCSc1c2c(nc3ccccc13)CCCC2)CCCNc1c2c(nc3ccccc13)CCCC2 ?
Fulfilled

----------
Test Method Notes: Inhibitory ratio for bovine acetylcholinesterase and equine butyrylcholinesterase
Please note: true (1) applies when Ratio is 10 or greater, and false (0) applies otherwise.

A selection of reference data follows.
- Chemical Structure: "OCCN(CCCNc1c2c(nc3ccccc13)CCCC2)CCCNc1c2ccccc2nc2ccccc12"
  Assigned Category: "false (0)"
- Chemical Structure: "c1ccc2c(NCCCCCCCSc3c4c(nc5ccccc35)CCCC4)c3c(nc2c1)CCCC3"
  Assigned Category: "false (0)"
- Chemical Structure: "c1ccc2c(NCCCCCNc3c4c(nc5ccccc35)CCCC4)c3c(nc2c1)CCCC3"
  Assigned Category: "false (0)"
- Chemical Structure: "CC(=O)N(CCCCSc1c2c(nc3ccccc13)CCCC2)CCCNc1c2c(nc3ccccc13)CCCC2"
  Assigned Category: "true (1)"

Does Ratio meet or surpass 10 for CN(CCCNc1c2c(nc3ccccc13)CCCC2)CCCNc1c2c(nc3ccccc13)CCCC2 ?
false (0)

Does Ratio meet or surpass 10 for C=CCN(CCCNc1c2c(nc3ccccc13)CCCC2)CCCNc1c2ccccc2nc2ccccc12 ?
false (0)

Does Ratio meet or surpass 10 for CC(=O)N(CCCNc1c2c(nc3ccccc13)CCCC2)CCCSc1c2c(nc3ccccc13)CCCC2 ?
true (1)

Does Ratio meet or surpass 10 for CC(=O)N(CCCNc1c2c(nc3ccccc13)CCCC2)CCCNc1c2ccccc2nc2ccccc12 ?
true (1)

Does Ratio meet or surpass 10 for CN(CCCNc1c2c(nc3ccccc13)CCCC2)CCCSc1c2c(nc3ccccc13)CCCC2 ?
false (0)

Does Ratio meet or surpass 10 for CN(CCCCSc1c2c(nc3ccccc13)CCCC2)CCCNc1c2c(nc3ccccc13)CCCC2 ?
true (1)

Does Ratio meet or surpass 10 for c1ccc2c(NCCCCCCCCCSc3c4c(nc5ccccc35)CCCC4)c3c(nc2c1)CCCC3 ?
true (1)

Does Ratio meet or surpass 10 for c1ccc2c(NCCCCCCCCSc3c4c(nc5ccccc35)CCCC4)c3c(nc2c1)CCCC3 ?
true (1)
